measurement-label: melting point

Specify melting point for O=C(Nc1ccccc1F)NC1CCN(c2ncnc3c2nc(-c2ccccc2Cl)n3-c2ccc(OC(F)F)nc2)CC1 and stop.
140 to 142 °C

Return melting point (reported value) for this compound: O=C(NCC1CCCCC1)N1CCN(c2ncnc3c2nc(-c2ccccc2Cl)n3-c2ccc(Cl)cc2)CC1
105 to 107 °C

Provide one value: measured melting point of O=S(=O)(NC1CCN(c2ncnc3c2nc(-c2ccccc2Cl)n3-c2ccc(OC(F)F)nc2)CC1)c1ccc(F)c(F)c1
212 to 213 °C

Given the compound O=S(=O)(NC1CCN(c2ncnc3c2nc(-c2ccccc2Cl)n3-c2ccc(Cl)cc2)CC1)c1ccc(F)cc1F , write its reported melting point.
232 to 233 °C

----------
biological target: hCB1 (Homo sapiens); experiment: radioligand displacement binding at CB1 (membranes of CHO-K1 cells over-expressing receptor); conditions: read-out: Binding affinity (Ki) at hCB1; radioligand displacement, CHO-K1 membranes; average of 3-6 measurements
Sequence (P21554 whole entry): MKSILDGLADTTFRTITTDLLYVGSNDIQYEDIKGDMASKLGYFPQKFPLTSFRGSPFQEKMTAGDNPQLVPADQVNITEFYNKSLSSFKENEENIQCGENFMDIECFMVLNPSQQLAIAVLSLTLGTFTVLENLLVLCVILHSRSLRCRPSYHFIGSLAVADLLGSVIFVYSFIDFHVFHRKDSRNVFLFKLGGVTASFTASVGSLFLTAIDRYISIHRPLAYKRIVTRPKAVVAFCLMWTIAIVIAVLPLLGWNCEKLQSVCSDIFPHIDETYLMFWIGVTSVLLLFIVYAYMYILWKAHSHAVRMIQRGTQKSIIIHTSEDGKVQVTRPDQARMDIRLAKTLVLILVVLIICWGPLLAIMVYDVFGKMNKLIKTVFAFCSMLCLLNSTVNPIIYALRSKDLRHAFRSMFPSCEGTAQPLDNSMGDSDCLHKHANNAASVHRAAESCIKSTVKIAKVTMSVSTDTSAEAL
pKi: −log10 of the molar value.
# if value of pKi reaches 8, tag Criterion met; if it stays below, tag Criterion not met

Answered examples (6):
smiles-repr	answer-label
O=C(NC1CCCC1)N1CCN(c2ncnc3c2nc(-c2ccccc2Cl)n3-c2ccc(Cl)cc2)CC1	Criterion met
CC(C)CS(=O)(=O)N1CCN(c2ncnc3c2nc(-c2ccccc2Cl)n3-c2ccc(Cl)cc2)CC1	Criterion met
CC(C)S(=O)(=O)N1CCN(c2ncnc3c2nc(-c2ccccc2Cl)n3-c2ccc(Cl)cc2)CC1	Criterion met
Clc1ccc(-n2c(-c3ccccc3Cl)nc3c(N4CCC(c5nc6ccccc6[nH]5)CC4)ncnc32)cc1	Criterion not met
O=C(NC1(C(F)(F)F)CCCC1)N1CCN(c2ncnc3c2nc(-c2ccccc2Cl)n3-c2ccc(Cl)cc2)CC1	Criterion not met
O=C(N1CCN(c2ncnc3c2nc(-c2ccccc2Cl)n3-c2ccc(Cl)cc2)CC1)C(F)(F)F	Criterion met

For this compound, is measured pKi 8 or higher? O=C(NC1CCCCC1)N1CCN(c2ncnc3c2nc(-c2ccccc2Cl)n3-c2ccc(Cl)cc2)CC1
Criterion met

Test whether the compound CCCCS(=O)(=O)N1CCN(c2ncnc3c2nc(-c2ccccc2Cl)n3-c2ccc(Cl)cc2)CC1 records pKi of 8 or higher.
Criterion met

----------
molecular target: hCB2 (Homo sapiens); assay: radioligand displacement binding at CB2 ([3H]CP55940, membranes of CHO-K1 cells over-expressing receptor); settings: read-out: Binding affinity (Ki) at hCB2; displacement of [3H]CP55940, CHO-K1 membranes; average of 3-6 measurements
Sequence (P34972 whole entry): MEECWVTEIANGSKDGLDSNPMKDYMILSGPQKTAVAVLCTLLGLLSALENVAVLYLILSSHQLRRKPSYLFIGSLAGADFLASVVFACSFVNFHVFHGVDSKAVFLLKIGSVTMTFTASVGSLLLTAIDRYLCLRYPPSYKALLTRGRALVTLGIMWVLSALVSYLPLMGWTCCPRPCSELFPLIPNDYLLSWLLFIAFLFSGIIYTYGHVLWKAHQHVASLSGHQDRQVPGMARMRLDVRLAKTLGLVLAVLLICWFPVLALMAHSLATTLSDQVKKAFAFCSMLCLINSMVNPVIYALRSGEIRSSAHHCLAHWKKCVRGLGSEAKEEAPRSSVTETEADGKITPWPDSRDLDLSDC
# Lookup of reported pKi keyed by entry
The read-out pKi is expressed as -log10 of concentration in moles per litre.

Some compounds with known pKi results, for comparison:
compound	pKi
O=C(NCC1CCCCC1)N1CCN(c2ncnc3c2nc(-c2ccccc2Cl)n3-c2ccc(Cl)cc2)CC1 [Compound 120]	6.13
O=C(Nc1ccccc1F)N1CCN(c2ncnc3c2nc(-c2ccccc2Cl)n3-c2ccc(Cl)cc2)CC1 [Compound 56]	5.89
O=C(NC1(C(F)(F)F)CCCC1)N1CCN(c2ncnc3c2nc(-c2ccccc2Cl)n3-c2ccc(Cl)cc2)CC1 [Compound 118]	5.89

Now look at this entry.
Identify measured pKi associated with CCCCC(=O)N1CCN(c2ncnc3c2nc(-c2ccccc2Cl)n3-c2ccc(Cl)cc2)CC1 [Compound 103]
6.39

----------
CB2 Ki/CB1 Ki selectivity ratio for assorted molecules
biological target: hCB1 (Homo sapiens); assay: radioligand displacement binding at CB1 (membranes of CHO-K1 cells over-expressing receptor); conditions: CB1 versus CB2
Write the value as a bare number.

Recorded CB2 Ki/CB1 Ki selectivity ratio, per entry:
smiles-repr	assayed-system	CB2 Ki/CB1 Ki selectivity ratio
O=C(Nc1ccccc1)N1CCN(c2ncnc3c2nc(-c2ccccc2Cl)n3-c2ccc(C(F)(F)F)nc2)CC1	hCB1 (Homo sapiens)	30
CCCCC(=O)NC1(c2ccccc2)CCN(c2ncnc3c2nc(-c2ccncc2)n3-c2ccc(Cl)cc2)CC1	hCB1 (Homo sapiens)	5.8
CCCCC(=O)NC1(c2ccccc2)CCN(c2ncnc3c2nc(-c2ccncc2Cl)n3-c2ccc(Cl)cc2)CC1	hCB1 (Homo sapiens)	46
CCCCC(=O)NC1CCN(c2ncnc3c2nc(-c2ccncc2Cl)n3-c2ccc(Cl)cc2)CC1	hCB1 (Homo sapiens)	126
CCCCC(=O)NC1CCN(c2ncnc3c2nc(-c2ccncc2C)n3-c2ccc(Cl)cc2)CC1	hCB1 (Homo sapiens)	51

Output measured CB2 Ki/CB1 Ki selectivity ratio for this item: FC(F)Oc1ccc(-n2c(-c3ccccc3Cl)nc3c(N4CCN(Cc5ccccc5Cl)CC4)ncnc32)cn1
34

Kindly indicate its recorded CB2 Ki/CB1 Ki selectivity ratio. Item: N#Cc1ccc(N2CCN(c3ncnc4c3nc(-c3ccccc3Cl)n4-c3ccc(Cl)cc3)CC2)nc1
101

Determine its reported CB2 Ki/CB1 Ki selectivity ratio: CCCCS(=O)(=O)N1CCN(c2ncnc3c2nc(-c2ccccc2Cl)n3-c2ccc(Cl)cc2)CC1
871

----------
measurement-label: melting point

Known melting point results, listed for orientation:
smiles-repr	measurement-label	obs-value
Cc1cc(-n2c(-c3ccccc3Cl)nc3c(N4CCC(NS(=O)(=O)c5ccc(F)c(F)c5)CC4)ncnc32)no1	melting point	180 to 182 °C
FC(F)(F)c1ccccc1CN1CCN(c2ncnc3c2nc(-c2ccccc2Cl)n3-c2ccc(Cl)cc2)CC1	melting point	119 to 121 °C
O=C(NC1(C(F)(F)F)CCCC1)N1CCN(c2ncnc3c2nc(-c2ccccc2Cl)n3-c2ccc(Cl)cc2)CC1	melting point	202 to 204 °C
O=C(NC1CCCCC1)N1CCN(c2ncnc3c2nc(-c2ccccc2Cl)n3-c2ccc(Cl)cc2)CC1	melting point	228 to 229 °C
O=C(NC1CCN(c2ncnc3c2nc(-c2ccccc2Cl)n3-c2ccc(Cl)cc2)CC1)NC1CCC(F)(F)CC1	melting point	228 to 229 °C

For the compound O=C(NCC1CCCCC1)NC1CCN(c2ncnc3c2nc(-c2ccccc2Cl)n3-c2ccc(OC(F)F)nc2)CC1 , give its measured melting point value.
141 to 143 °C

# return recorded melting point for input O=S(=O)(NC1CCN(c2ncnc3c2nc(-c2ccccc2Cl)n3-c2ccc(C(F)(F)F)nc2)CC1)c1ccc(F)c(F)c1
214 to 215 °C

Given O=S(=O)(NC1CCN(c2ncnc3c2nc(-c2ccccc2Cl)n3-c2ccc(Cl)cc2)CC1)c1ccc(F)c(F)c1 , respond with its melting point.
183 to 184 °C

Fill in melting point for record Cn1ccc(-n2c(-c3ccccc3Cl)nc3c(N4CCC(NS(=O)(=O)c5ccc(F)c(F)c5)CC4)ncnc32)n1
206 to 208 °C

----------
test system: MDCK; assay: MDCK BBB Assay; format: in vitro ADME; conditions: MDCK cells
Rule: MDCK BBB Assay (Basolateral/Apical Peak Area Ratio) Mean below 0.001 gives Satisfied. Equal to or above 0.001 gives Not satisfied.

Here's an entry: CCCCC(=O)NC1(c2ccccc2)CCN(c2ncnc3c2nc(-c2ccncc2Cl)n3-c2ccc(Cl)cc2)CC1 [Compound 93] . Is its MDCK BBB Assay (Basolateral/Apical Peak Area Ratio) Mean below 0.001?
Satisfied

Is 0.001 strictly greater than the compound's reported MDCK BBB Assay (Basolateral/Apical Peak Area Ratio) Mean? compound: N#Cc1ccc(N2CCN(c3ncnc4c3nc(-c3ccccc3Cl)n4-c3ccc(Cl)cc3)CC2)nc1 [Compound 3]
Not satisfied

Here's an entry: Clc1ccc(-n2c(-c3ccccc3Cl)nc3c(N4CCN(c5ccc(OCc6ccccc6)cc5)CC4)ncnc32)cc1 [Compound 65] . Is its MDCK BBB Assay (Basolateral/Apical Peak Area Ratio) Mean below 0.001?
Not satisfied

Given the entry N=C(NC1CCN(c2ncnc3c2nc(-c2ccccc2Cl)n3-c2ccc(Cl)cc2)CC1)c1ccc(F)cc1 [Compound 26] , would its reported MDCK BBB Assay (Basolateral/Apical Peak Area Ratio) Mean be below 0.001?
Not satisfied

Is 0.001 strictly greater than the compound's reported MDCK BBB Assay (Basolateral/Apical Peak Area Ratio) Mean? compound: O=S(=O)(NC1CCN(c2ncnc3c2nc(-c2ccccc2Cl)n3-c2ccc(Cl)cc2)CC1)c1ccc(F)cc1F [Compound 5]
Satisfied

----------
test system: MDCK; assay: MDCK BBB Assay; type: in vitro ADME; settings: MDCK BBB assay
Attribute: % Permeable
Give just the numeric value; % need not be written.

Examples from the recorded data:
molecule	% Permeable, %
N#Cc1ccccc1N1CCN(c2ncnc3c2nc(-c2ccccc2Cl)n3-c2ccc(Cl)cc2)CC1	0
CCCS(=O)(=O)N1CCN(c2ncnc3c2nc(-c2ccccc2Cl)n3-c2ccc(Cl)cc2)CC1	6
O=S(=O)(NC1CCN(c2ncnc3c2nc(-c2ccccc2Cl)n3-c2ccc(Cl)cc2)CC1)c1ccc(F)cc1F	0
CC(C)S(=O)(=O)N1CCN(c2ncnc3c2nc(-c2ccccc2Cl)n3-c2ccc(Cl)cc2)CC1	0
O=S(=O)(NC1CCN(c2ncnc3c2nc(-c2ccccc2Cl)n3-c2ccc(Cl)cc2)CC1)c1ccc(F)c(F)c1	0
O=C(Nc1ccccc1)NC1CCN(c2ncnc3c2nc(-c2ccccc2Cl)n3-c2ccc(Cl)cc2)CC1	0
O=C(Nc1ccccn1)N1CCN(c2ncnc3c2nc(-c2ccccc2Cl)n3-c2ccc(Cl)cc2)CC1	1
CC(C)(C)OC(=O)N1CCN(c2ncnc3c2nc(-c2ccccc2Cl)n3-c2ccc(Cl)cc2)CC1	3
CCS(=O)(=O)N1CCN(c2ncnc3c2nc(-c2ccccc2Cl)n3-c2ccc(Cl)cc2)CC1	18
CCCCS(=O)(=O)N1CCN(c2ncnc3c2nc(-c2ccccc2Cl)n3-c2ccc(Cl)cc2)CC1	5

Supply % Permeable value. Item: CS(=O)(=O)N1CCN(c2ncnc3c2nc(-c2ccccc2Cl)n3-c2ccc(Cl)cc2)CC1
14
